# credit: ChEMBL document CHEMBL1126253

Species on record: Rattus norvegicus
Test: Concentration of the drug in the kidney of rat
Type: ADME, organism-based
Settings: in vivo
measured_endpoint: Log M

Recorded Log M, per entry:
- O=C(O)c1cccc(Cl)c1: 1.79
- CC(=O)Nc1ccc(C(=O)O)cc1: -0.64
- COc1cccc(C(=O)O)c1: 1.35
- Nc1cccc(C(=O)O)c1: 1.45
- COc1ccc(C(=O)O)cc1: 1

P. Cc1cccc(C(=O)O)c1
Q. CN(C)c1ccc(C(=O)O)cc1
**Q:** // compare measured Log M, left P , right Q , return larger Use the label to indicate which entry you chose.
**A:** P
